Molecular target: Adenosine receptor A2b (Homo sapiens, UniProt P29275)
Sequence (P29275 whole entry): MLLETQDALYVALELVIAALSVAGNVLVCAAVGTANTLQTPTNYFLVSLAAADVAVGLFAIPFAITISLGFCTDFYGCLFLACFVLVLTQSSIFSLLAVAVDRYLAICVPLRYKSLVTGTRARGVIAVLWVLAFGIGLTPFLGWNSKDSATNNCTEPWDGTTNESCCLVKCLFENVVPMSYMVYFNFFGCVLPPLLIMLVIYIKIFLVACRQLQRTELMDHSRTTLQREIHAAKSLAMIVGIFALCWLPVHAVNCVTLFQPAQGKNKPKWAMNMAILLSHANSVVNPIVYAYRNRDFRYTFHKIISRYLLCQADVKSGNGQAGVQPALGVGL
Assay: Binding affinity to human adenosine A2B receptor
Test Readout: pKi
// pKi here means minus log10 of the molar concentration (mol/L)

Enquiry: Requested read-out: pKi. Entry: Cn1c(=O)c2c(nc3n2CCCN3c2ccc(F)cc2)n(C)c1=O
Return: 5.00

* * *

Target: Amine oxidase [flavin-containing] B (Homo sapiens, UniProt P27338)
Sequence (P27338 whole entry): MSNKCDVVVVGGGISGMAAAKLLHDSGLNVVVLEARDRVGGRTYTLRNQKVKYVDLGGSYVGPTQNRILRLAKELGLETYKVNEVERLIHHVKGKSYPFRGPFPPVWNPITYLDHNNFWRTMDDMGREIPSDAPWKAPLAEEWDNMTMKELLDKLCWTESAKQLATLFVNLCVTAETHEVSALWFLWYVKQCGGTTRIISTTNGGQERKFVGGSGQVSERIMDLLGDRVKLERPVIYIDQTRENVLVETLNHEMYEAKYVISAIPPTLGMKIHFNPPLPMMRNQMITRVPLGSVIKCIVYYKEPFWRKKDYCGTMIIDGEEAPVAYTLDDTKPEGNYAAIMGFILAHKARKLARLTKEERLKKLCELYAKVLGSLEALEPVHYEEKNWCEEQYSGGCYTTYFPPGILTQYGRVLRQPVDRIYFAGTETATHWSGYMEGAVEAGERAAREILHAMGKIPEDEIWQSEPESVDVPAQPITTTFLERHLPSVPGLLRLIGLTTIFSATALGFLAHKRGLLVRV
Test Readout: pIC50
The meaning of pIC50 here: minus log10 of the concentration in molar units.

These solved cases illustrate the format of a correct answer.
In [3]: df
Out[3]:
                               input_smiles                               system_name  test_readout  reported
0  Cn1c(=O)c2c(nc3n2CCCN3c2ccc(Cl)c(Cl)c2)n(C)c1=O  Amine oxidase [flavin-containing] B (Homo sapiens, UniProt P27338)         pIC50      5.00
1  CCn1c(=O)c2c(nc3n2CCCN3c2cccc(OC)c2)n(CC)c1=O  Amine oxidase [flavin-containing] B (Homo sapiens, UniProt P27338)         pIC50      5.19
2  CCCn1c(=O)c2c(nc3n2CCCN3CC(=O)N2CCN(c3ccccc3)CC2)n(CCC)c1=O  Amine oxidase [flavin-containing] B (Homo sapiens, UniProt P27338)         pIC50      5.00
3  C#CCn1c(=O)c2c(nc3n2CCCN3Cc2cccc(OC)c2)n(C)c1=O  Amine oxidase [flavin-containing] B (Homo sapiens, UniProt P27338)         pIC50      5.00

Enquiry: Which pIC50 value is on record for Cn1c(=O)c2c(nc3n2CCCN3CCc2ccc(Cl)cc2)n(C)c1=O ?
Return: 6.20

Enquiry: // pIC50 lookup, key: Cn1c(=O)c2c(nc3n2CCCN3Cc2ccc(Cl)cc2)n(C)c1=O
Return: 6.66

Enquiry: pIC50 lookup needed for C#CCn1c(=O)c2c(nc3n2CCCN3Cc2ccccc2)n(C)c1=O , thanks.
Return: 5.42

Enquiry: // returns reported pIC50 for input Cn1c(=O)c2c(nc3n2CCCN3Cc2cccc(Cl)c2)n(C)c1=O
Return: 6.46

Enquiry: Give its pIC50 value. Item: Cn1c(=O)c2c(nc3n2CCCN3Cc2ccc(Cl)c(Cl)c2)n(C)c1=O
Return: 7.20

Enquiry: Given the entry CCn1c(=O)c2c(nc3n2CCCN3C2CCCCC2)n(CC)c1=O , report its measured pIC50.
Return: 5.43

Enquiry: What value of pIC50 has been recorded for this entry: CCCn1c(=O)c2c(nc3n2CCCN3CCC(=O)N2CCN(Cc3ccc(Cl)cc3)CC2)n(CCC)c1=O
Return: 5.44

Enquiry: Consider the compound CCCn1c(=O)c2c(nc3n2CCCN3CC(=O)N2CCN(c3ccc(Cl)cc3)CC2)n(CCC)c1=O and give its measured pIC50.
Return: 5.00

Enquiry: // pIC50 lookup, key: CCn1c(=O)c2c(nc3n2CCCN3CCc2ccc(OC)c(OC)c2)n(CC)c1=O
Return: 5.23

Enquiry: Could you share which pIC50 value was measured for CCn1c(=O)c2c(nc3n2CCCN3CCc2ccc(OC)cc2)n(CC)c1=O ?
Return: 5.32
